Overview of recorded half-life for various compounds
- protocol notes: Half-life in rat plasma
- Assay type: ADME
// units = h; emit number, no label

COc1cc(COC(=O)NCC(=O)[C@]2(O)Cc3c(O)c4c(c(O)c3[C@@H](OC3CC(N)C(O)C(C)O3)C2)C(=O)c2c(OC)cccc2C4=O)cc(OC)c1OC(=O)CCOCCOCCO (stereo partly drawn)
1

// next entry
Data point: COc1cccc2c1C(=O)c1c(O)c3c(c(O)c1C2=O)C[C@@](O)(C(=O)CNC(=O)OCc1cc(C)c(OC(=O)CCOCCOCCO)c(C)c1)C[C@@H]3OC1CC(N)C(O)C(C)O1 (stereo partly drawn) ; half-life = 1.9
